test system: Amaranthus retroflexus; assay: Example B1 herbicidal action, post-emergence, seed trays in climatic chamber (score 10=total damage to plant, 0=no damage to plant); format: in vivo; settings: Application post-emergence, 1000 g/ha, evaluated after 9 days
parameter: AMARE (damage to plant)

# smiles-structure, assay-result
records = [
    ("CC(C)(C)C(=O)Oc1c(-c2ccccc2OC(F)(F)F)c(=O)n(CC(F)F)c2nccnc12", 0),
    ("CC(C)(C)C(=O)Oc1c(-c2c(F)ccc(F)c2Cl)c(=O)n(CCCCCl)c2nccnc12", 0),
    ("CC(C)(C)C(=O)Oc1c(-c2c(F)ccc(F)c2Cl)c(=O)n(CCC(F)(F)F)c2nccnc12", 0),
    ("CC(C)(C)C(=O)Oc1c(-c2ccccc2OC(F)(F)F)c(=O)n(CCC(F)(F)F)c2nccnc12", 0),
    ("CC(C)(C)C(=O)Oc1c(-c2c(F)ccc(F)c2Cl)c(=O)n(CCC(F)(F)C(F)(F)F)c2nccnc12", 0),
    ("CC(C)C(=O)Oc1c(-c2cc(C(F)(F)F)ccc2Cl)c(=O)n(CC(F)F)c2nccnc12", 4),
    ("Cc1ccc(Cl)c(-c2c(OC(=O)C(C)C)c3nccnc3n(CC(F)F)c2=O)c1F", 5),
    ("CC(C)(C)C(=O)Oc1c(-c2c(F)ccc(F)c2Cl)c(=O)n(CC(F)F)c2nccnc12", 4),
    ("CC(C)(C)C(=O)Oc1c(-c2cc(C(F)(F)F)ccc2Cl)c(=O)n(CC(F)F)c2nccnc12", 6),
    ("O=c1c(-c2c(F)ccc(F)c2Cl)c(O)c2nccnc2n1CC(F)F", 6),
    ("CC(C)C(=O)Oc1c(-c2c(F)ccc(F)c2Cl)c(=O)n(CC(F)F)c2nccnc12", 6),
    ("Cc1ccc(Cl)c(-c2c(OC(=O)C(C)(C)C)c3nccnc3n(CC(F)F)c2=O)c1F", 4),
    ("O=c1c(-c2cccc(C(F)(F)F)c2Cl)c(O)c2nccnc2n1CC(F)F", 0),
]

---

System: Echinochloa crus-galli
Test: Example B2 herbicidal action, post-emergence, pots in glasshouse, evaluated after 13 days (10=total damage to plant; 0=no damage to plant)
Format: in vivo
Settings: rate 1000 g/ha
Experimental: Seeds of a variety of test species were sown in standard soil in pots. […] After 13 days, the test was evaluated (10=total damage to plant; 0=no damage to plant).
ECHCG damage score (10=total damage to plant; 0=no damage to plant) listing for selected molecules.
parameter: ECHCG damage score (10=total damage to plant; 0=no damage to plant)

# smiles-structure, assay-result
measured = [
    ("COc1cc(F)c(F)cc1-c1c(OC(=O)C(C)(C)C)c2nccnc2n(CC(F)F)c1=O", 7),
    ("O=c1c(-c2cc(F)ccc2Cl)c(O)c2nccnc2n1CC(F)F", 7),
    ("CC(C)C(=O)Oc1c(-c2cc(F)c(Cl)cc2Cl)c(=O)n(CC(F)F)c2nccnc12", 7),
]
